Quick reference: pKd of the listed items.
- Study target: T1, BMP-9 (UniProt Q9UK05 320-429)
- T1 construct: also called bone morphogenetic protein 9
- T1 sequence (looked up): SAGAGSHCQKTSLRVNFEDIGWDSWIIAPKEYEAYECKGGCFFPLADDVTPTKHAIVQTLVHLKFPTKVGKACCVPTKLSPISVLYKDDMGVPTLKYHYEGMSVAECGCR
- Experiment summary: SPR (Biacore 8K), Fc protein captured on anti-human IgG, ligand injected
The meaning of pKd here: minus log10 of the concentration in molar units.

These recorded examples may help you get a feel for the data.
Query string: Looking for the measured pKd of ActRIIA-A6 (SEQ ID NO: 108) chimera-Fc protein (Fc fusion, Tested as chimera-Fc protein; not shown: linker (if any) and Fc domain) GAILGRSETQECLFFNANWEKDRTNQTGVEPCYGDKDKRRHCFATWKNISGSIEIVKQGCWLDDINCYDRTDCVEKEENPQVYFCCCEGNMCNEKFSYFPEMEVTQPTS , can you help?
Result string: 7.30

Query string: State the recorded pKd for this entry: ActRIIA-B1B4 (SEQ ID NO: 102) chimera-Fc protein (Fc fusion, Tested as chimera-Fc protein; also called ActRIIA-B1β4; not shown: linker (if any) and Fc domain) GAILGRSETQECIYYNANWEKDRTNQTGVEPCYGDKDKRRHCFATWKNISGTIELVKKGCWLDDINCYDRTDCVEKKDSPEVYFCCCEGNMCNEKFSYFPEMEVTQPTS
Result string: 7.48

Query string: Returns the measured pKd for the input binder. Input: ActRIIA-A8 (SEQ ID NO: 110) chimera-Fc protein (Fc fusion, Tested as chimera-Fc protein; not shown: linker (if any) and Fc domain) GAILGRSETQECLFFNANWEKDRTNQTGVEPCYGDKDKRRHCFATWKNISGSIEIVKQGCWLDDINCYDRTDCVEKKDSPEVYFCCCEGNMCNEKFSYFPEAGGPEVTYEPPPTAPT
Result string: 8.09

Next item in the queue.
Query string: Bench note: what pKd did ActRIIB-A5 (SEQ ID NO: 123) chimera-Fc protein (Fc fusion, Tested as chimera-Fc protein; not shown: linker (if any) and Fc domain) GRGEAETRECIYYNANWELERTNQSGLERCEGEQDKRLHCYASWRNSSGTIELVKKGCWLDDINCYDRTDCVATEENPQVYFCCCEGNFCNERFTHLPEAGGPEVTYEPPPTAPT show?
Result string: 9.84
